# System: HCC-2998 colon
# protocol text: NCI-60 one-dose screen, 48 h (100 = growth as untreated, 0 = no growth, -100 = all killed)
# condition parameters: 10 µM unless noted
# Protocol: Growth inhibition of the HCC-2998 human tumor cell line is measured as a screen for anti-cancer activity. Cells are grown in 96 well plates and exposed to the test compound for 48 hours. Compounds are tested at a single concentration, which is 10^-5 M for most compounds. The reported endpoint is percent growth (GI% or GIPRCNT), where numbers from 0 - 100% represent growth inhibition, and numbers from -100% - 0 represent cell death. For example, a value of 40 represents 60% growth inhibition. […]
The panel holds about 83,000 compounds, 20% with a hit somewhere; the sample as a whole holds those more often.
readout: growth (%)
Answers are plain numbers, in %.

Please review the entries below; each comes with its answer.
stdin: Request the reported growth associated with CCOC(=O)c1ccc(N/C=C/C(=O)c2ccccc2)cc1
stdout: 109

stdin: Request the reported growth associated with COc1cc2oc(-c3cccc(NC(=O)c4cc(NC(=O)[C@H](C)NC(=O)OC(C)(C)C)ccc4C)c3)cc(=O)c2c(OC)c1OC
stdout: 78.6

stdin: Request the reported growth associated with COc1cc(/C=C/C(=O)c2ccc(N3CCN(C)CC3)cc2)ccc1F
stdout: 73

stdin: Request the reported growth associated with COc1ccc(-c2nnc(SCc3ccc(O)c4ncccc34)n2-c2ccccc2)cc1
stdout: 31.9

stdin: Request the reported growth associated with Oc1ccc(CSc2nnc(-c3ccncc3)n2-c2ccccc2)c2cccnc12
stdout: 35.9

Dear colleague, could you please provide growth for the compounds listed below?
1. C=C(C)C(=O)O[C@H]1C[C@@]2(C)OC(=CC2=O)[C@H](C)[C@H](O)[C@H]2OC(=O)C(=C)[C@@H]21
2. CN1C(=O)/C(=C/C=C/c2ccco2)SC1=S
3. COc1ccc([C@H]2[C@H](O)C(=O)N2c2cc(OC)c(OC)c(OC)c2)cc1Cl
4. O=C(NNc1nc2cc(F)cc(F)c2n2cccc12)c1ncccn1

stdout:
1. 114
2. 99.2
3. 13.8
4. 51.9

Dear colleague, could you please provide growth for the compounds listed below?
1. Cc1ccccc1/C=C/c1nn2c(-c3ccoc3C)nnc2s1
2. Oc1ccc(CSc2nnc(-c3ccc(Oc4ccccc4)cc3)o2)c2cccnc12
3. C#C[C@]1(O)CC[C@H]2[C@@H]3CC=C4c5sc(Nc6cccc(C)n6)nc5CC[C@]4(C)[C@H]3CC[C@@]21C
4. O=C(C[n+]1ccnc2ccccc21)c1ccc(O)c(O)c1
5. COc1ccc(CCN2C(=O)/C(=C/c3nc(CO)cs3)SC2=S)cc1

stdout:
[108, 29.4, 47.5, 81.2, 107]

Dear colleague, could you please provide growth for the compounds listed below?
1. O=S(=O)(Nc1ccc(-c2nc(-c3cccc(O)c3)c(-c3ccnc(Br)c3)[nH]2)cc1)c1ccccc1
2. C#C[C@]1(O)CC[C@H]2[C@@H]3CC=C4c5sc(Nc6cc(Cl)ccn6)nc5CC[C@]4(C)[C@H]3CC[C@@]21C
3. O=C(CCCCCCN1CC(=O)N2[C@@H](c3cc(F)cc(F)c3)c3[nH]c4ccccc4c3C[C@H]2C1=O)NO
4. CC(C)c1nn(-c2ccccc2)c(N2CCCCC2)c1/C=N/NC(N)=S

stdout:
1. 32.4
2. 39.8
3. 82.4
4. 105

Dear colleague, could you please provide growth for the compounds listed below?
1. O=C1[C@H]2Cc3c([nH]c4ccccc34)[C@@H](c3ccc(Cl)cc3)N2C(=O)CN1C1CCN(Cc2c(Cl)cccc2Cl)CC1
2. CCCCCCNC(=O)Oc1ccc(/C(=C(/C)c2ccc(OC)cc2)c2ccc(OCCN3CCCC3)cc2)cc1
3. CC1CCN(S(=O)(=O)c2ncsc2-c2ccccc2)CC1
4. CCN1C(=O)N(CC)C2SC(N/N=C/c3ccccc3F)=NC21 (configuration not stated)

stdout:
1: 101; 2: 87.9; 3: 97.4; 4: 17.1
